# TEST NAME: Therapeutic index, ratio of IC50 for human H9 cells to EC50 for HIV
# Type: cell-based
# SETTINGS: read-out: Ratio IC50/EC50
READOUT NAME: selectivity ratio
# answer = number (no unit)

If you can, please state the reported selectivity ratio value of CC1=C2OC(C)(C)c3c(O)cc(C)c(c32)C(=O)C1=O [DEHYDROOXOPEREZINONE] .
1.43

Origin of values: ChEMBL document CHEMBL1146558
